assay: inhibitors of hydroxyurea-induced Chk1 phosphorylation, primary screen, imaging, HeLa, phospho-Chk1 nuclear intensity (AID 1187); settings: hydroxyurea-induced phospho-Chk1 immunofluorescence imaging, higher = more signal
Active and inactive are the calls of the source. How the calls were made is not given here.
Metric Name: z-score

Here's what some known entries look like.
>  <Molecule>
CC(C)C(=C=CC[C@@H](O)c1ccc(CO)o1)CCO

>  <z-score>
-0.763 (inactive)

$$$$
>  <Molecule>
C=CCC(OC(C)=O)[C@@H]1[C@@H](N(Cc2cccc3ccccc23)C(=O)c2cccc3ccccc23)c2cc(OCCCO)ccc2N1C(=O)Cc1ccc(OC)cc1 (stereo partly specified)

>  <z-score>
0.507 (inactive)

$$$$
>  <Molecule>
COc1ccc(C#Cc2ccc3c(c2)[C@]2(C(=O)N3)[C@H](c3ccc(O)cc3)N3[C@H](c4ccccc4)[C@H](c4ccccc4)OC(=O)[C@H]3[C@@H]2C(=O)N2CCN(c3ncccn3)CC2)cc1

>  <z-score>
0.583 (inactive)

$$$$

Field z-score (entry `C=CCN1C(=O)[C@]2(O[C@H](CCn3cc([C@H](O)c4ccccc4)nn3)[C@@H]([Si](C)(C)c3ccc(OC)cc3)[C@@H]2C)c2cc(N3CCOC3=O)ccc21` ) reads -1.22 (inactive)

The reported value for `COCCOC(=O)N1C(=O)[C@@]2(c3ccccc31)[C@H](C(=O)Nc1nc3ccccc3s1)[C@H]1C(=O)O[C@H](c3ccccc3)[C@H](c3ccccc3)N1[C@@H]2c1ccc(O)cc1` in terms of z-score is 0.3 (inactive)

For `C=CC[C@@]1(C(=O)NCc2ccccc2)N=C(c2ccc(OCCCO)cc2)O[C@@H]1c1ccccc1` the molecule record lists z-score as -0.974 (inactive)

The molecule `NCCCCCCNC(=O)[C@@H]1C[C@@H]2C(=O)N[C@@H](Cc3ccccc3)C(=O)N2[C@@H]1c1ccc(O)cc1` showed z-score equal to 0.982 (inactive)

Please fill in: z-score reported for `C=CCNC(=O)[C@@H]1[C@H]2C(=O)O[C@H](c3ccccc3)[C@H](c3ccccc3)N2[C@H](c2ccc(O)cc2)[C@@]12C(=O)Nc1ccc(C#Cc3ccc(OC)cc3)cc12` = -0.426 (inactive)

Entry under test: `CC(C)(C)OC(=O)CC[C@@]12N=C(c3ccc(OCCCO)cc3)O[C@@H]1c1ccccc1N(Cc1ccccc1)C2=O` . Its z-score was -0.284 (inactive)

---

assay: yeast growth modulation, basal conditions, primary screen, YJM789 clinical isolate, OD600, 24 h (AID 1089);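 further: growth of clinical yeast isolate S. cerevisiae YJM 789 seeded 1000 cells per well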; details: S. cerevisiae YJM789 growth, higher = more signal, called active from +8 up or from −8 down
Binary call on z-score: Fulfilled from -0.7 upward, Not fulfilled beneath that.

>  <Compound String>
COc1c(C)cc(-c2cc3c(c(CCc4ccccc4)n2)[Si](C(C)C)(C(C)C)OC3)cc1C

>  <Cat>
Not fulfilled

$$$$
>  <Compound String>
COCCCNC(=O)[C@@]1(CCS(=O)(=O)c2ccccc2)N=C(c2ccc(OCCCO)cc2)O[C@H]1c1ccccc1CN=[N+]=[N-]

>  <Cat>
Not fulfilled

$$$$
>  <Compound String>
CCCC[C@@H](O)C1=C(C)C[C@H]2C(=O)N(C)C(=O)[C@H]2[C@H]1CO

>  <Cat>
Fulfilled

$$$$
>  <Compound String>
CCOC(=O)C[C@H]1[C@H](OC(=O)c2ccc(C(=O)c3ccccc3)cc2)[C@@H](NC(=O)Cc2ccc(OC)cc2)c2cc(OCCCO)ccc2N1C(=O)Cc1ccc(OC)cc1

>  <Cat>
Fulfilled

$$$$
>  <Compound String>
C=C(C(=O)CC[C@@H](OC(C)=O)c1ccccc1OCCO)C(C)C

>  <Cat>
Not fulfilled

$$$$

## Input Determine whether measured z-score meets or exceeds -0.7 for `CCOC(=O)C[C@H]1[C@H](OC(=O)Cc2ccc3c(c2)OCO3)[C@@H](NC(=O)c2ccc3ccccc3c2)c2cc(OCCCO)ccc2N1C(=O)c1ccc2ccccc2n1`
## Output Not fulfilled

---

experiment: binders of probe aFGF10 on microarray, primary screen, stem cell growth factor project, biochemical, small-molecule microarray, fluorescence 635/667 (AID 1071); details: higher = more signal;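 further: score merges 667 nm spot intensity and signal to noise from triplicate slides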
Listed molecules paired with reported composite z-score
Reply: number alone, nothing else.

Some solved entries appear below for comparison.
>  <Molecule>
CCCCC(=C=CC[C@@H](O)c1ccc(OCCO)cc1)C[C@@H](O)c1cc(Cl)cc(Cl)c1O

>  <composite z-score>
0.458

$$$$
>  <Molecule>
CC(C)NC(=O)[C@@H]1c2ccccc2C(=O)N(Cc2cc(F)cc(C(F)(F)F)c2)[C@H]1c1ccc(CO)cc1

>  <composite z-score>
-1.12

$$$$
>  <Molecule>
Cc1ccc(N2C(=O)c3ccccc3[C@](C)(C(=O)NC3CC3)[C@@H]2c2ccc(CO)cc2)nc1

>  <composite z-score>
-0.325

$$$$
>  <Molecule>
CC(C)CCC[C@@H](C)[C@H]1CC[C@@]2(C)C3=C(CC[C@]12C)[C@@]1(C)CC[C@H](OC(=O)CCl)C(C)(C)C1CC3 (stereo partly drawn)

>  <composite z-score>
0.422

$$$$
>  <Molecule>
C=CC[C@]1(C(=O)N(C)C)N=C(c2ccc(OCCCO)cc2)O[C@H]1c1ccccc1CN=[N+]=[N-]

>  <composite z-score>
0.548

$$$$

// composite z-score lookup, molecule = `C=CC[C@@H](OC(=O)Nc1ccc(SC)cc1)c1ccc(OCCO)cc1` , result: -0.932

GET /value?item= `COc1ccc([Si](C)(C)[C@H]2[C@H](CC(=O)N(CCO)Cc3ccccc3)O[C@@]3(C(=O)N(Cc4ccc(N5CCOC5=O)cc4)c4ccccc43)[C@@H]2C)cc1` &field=composite z-score returns 0.202

Notebook: `CC(C)(C)OC(=O)CC[C@]1(C(=O)NCc2ccccc2)COC(c2ccc(OCCCO)cc2)=N1` , composite z-score read as 0.0174

---

experiment: small-molecule microarray binders of probe aCHRDL2, primary screen, biochemical, biotinylated probe, 635/667 nm fluorescence (AID 1100); settings: higher = more signal
Reported composite z-score by item:

A selection of reference data follows.
>  <Molecule>
COC(=O)C(CC#Cc1ccc2c(c1)[C@]1(C(=O)N2)[C@H](c2ccccc2OCCO)N2[C@H](c3ccccc3)[C@H](c3ccccc3)OC(=O)[C@H]2[C@@H]1C(=O)N1CCCCCCC1)C(=O)OC

>  <composite z-score>
1.7

$$$$
>  <Molecule>
O=C(N1CCCCC1)[C@@]1(Cc2ccccc2)N=C(c2ccc(OCCCO)cc2)O[C@H]1c1ccccc1

>  <composite z-score>
1.31

$$$$

Given item C=CCC(OC(C)=O)[C@@H]1[C@@H](N(Cc2ccc(-c3ccccc3)cc2)C(=O)c2ccc(-c3ccccc3)cc2)c2cc(OCCCO)ccc2N1C(=O)c1ccc(-c2ccccc2)cc1 (stereo partly drawn) , the value recorded as its composite z-score is 0.672

Query `Cc1ccc(N2C(=O)c3ccccc3[C@](C)(C(=O)NCC(F)(F)F)[C@@H]2c2ccc(CO)cc2)nc1` yields composite z-score of 0.949

composite z-score for `O=C1O[C@H](c2ccccc2)[C@H](c2ccccc2)N2[C@H]1[C@@H](C(=O)NC[C@H](O)c1ccccc1)[C@]1(C(=O)Nc3ccc(C#CC4(O)CCCCCC4)cc31)[C@H]2c1ccc(O)cc1` is 0.471

For this molecule ( `C=C(C(=O)CC[C@@H](OC(C)=O)c1ccccc1OCCO)C(C)C` ), measured composite z-score is -0.0909

Record `O=C1O[C@@H](c2ccccc2)[C@@H](c2ccccc2)N2[C@@H](c3ccc(OCCO)cc3)[C@]3(C(=O)Nc4ccc(C#CC5(O)CCCCCC5)cc43)[C@@H](C(=O)NC[C@H](O)c3ccccc3)[C@H]12` , field composite z-score: 0.864

Item: `O=C1O[C@H](c2ccccc2)[C@H](c2ccccc2)N2[C@H]1[C@@H](C(=O)Nc1nc3ccccc3s1)[C@]1(C(=O)Nc3ccc(C#CCCO)cc31)[C@H]2c1ccccc1OCCO` | composite z-score: 0.784

---

target: Melanocortin receptor 4 (Homo sapiens); test: MC4R antagonists, dose response, counter-screen for LGR2 antagonist project, cell-based, plate reader, cherry pick (AID 743444); details: MC4R-expressing cells, antagonist mode; series mostly up to 35 µM
Results with a measured potency or affinity are listed apart. Activity calls are given as the source filed them. No rule for the calls is given here.

>  <Compound String>
C[C@H](CO)N1C[C@H](C)[C@H](CN(C)C(=O)Nc2ccc(F)cc2)OCCCC[C@H](C)Oc2ccc(NC(=O)NC3CCCCC3)cc2C1=O

>  <outcome>
inactive

$$$$
>  <Compound String>
C[C@H](CO)N1C[C@H](C)[C@H](CN(C)C(=O)Nc2ccccc2)OCCCC[C@H](C)Oc2ccc(NC(=O)CCC(F)(F)F)cc2C1=O

>  <outcome>
inactive

$$$$
>  <Compound String>
C[C@H](CO)N1C[C@H](C)[C@H](CN(C)C(=O)Nc2ccc(F)cc2)OCCCC[C@H](C)Oc2ccc(NC(=O)Nc3ccc(F)cc3)cc2C1=O

>  <outcome>
inactive

$$$$
